Numbers sourced from ChEMBL document CHEMBL1151058.

- Test system: Pseudomonas aeruginosa
- assay.protocol: In vitro minimum inhibitory concentration required against Pseudomonas aeruginosa GC 1544 oprD- strain
- Assay type: functional
Property: MIC; scope: individual compounds

Solved entries:
INSERT INTO results (compound, measured_endpoint, experimental_result) VALUES
  ('C[C@H]1C(S[C@H]2COC[C@@H]2CN)=C(C(=O)O)N2C(=O)[C@H]([C@@H](C)O)C12 (some centres undefined)', 'MIC', '64 µg/mL'),
  ('C[C@H]1C(S[C@H]2CO[C@H](CN)C2)=C(C(=O)O)N2C(=O)[C@H]([C@@H](C)O)C12 (some centres undefined)', 'MIC', '8 µg/mL'),
  ('C[C@H]1C(S[C@H]2CCO[C@@H]2CN)=C(C(=O)O)N2C(=O)[C@H]([C@@H](C)O)C12 (some centres undefined)', 'MIC', '32 µg/mL');

Now, please, on to the next compound.
Data request: Using the record for C[C@H]1C(S[C@@H]2CO[C@H](CN)C2)=C(C(=O)O)N2C(=O)[C@H]([C@@H](C)O)C12 (some centres undefined) , report its MIC.
Data returned: 16 µg/mL

---

- Tested on: Citrobacter freundii
- assay.protocol: In vitro minimum inhibitory concentration required against Citrobacter freundii GC 2211 strain
- Assay type: functional
measured.endpoint: MIC

Examples with their reported MIC follow.
INSERT INTO results (compound, experimental_result) VALUES
  ('C[C@H]1C(S[C@H]2CO[C@H](CN)C2)=C(C(=O)O)N2C(=O)[C@H]([C@@H](C)O)C12 (stereo partly drawn)', '≤ 0.06 µg/mL'),
  ('C[C@H]1C(SC2COC(CN)C2)=C(C(=O)O)N2C(=O)[C@H]([C@@H](C)O)C12 (stereo in doubt; 3a)', '≤ 0.06 µg/mL');

Data request: Request the reported MIC associated with C[C@@H](O)[C@H]1C(=O)N2C(C(=O)O)=C(S[C@@H]3CN[C@H](C(=O)N(C)C)C3)[C@H](C)[C@H]12
Data returned: ≤ 0.06 µg/mL

---

# MIC annotations
- System: Morganella morganii
- assay.protocol: In vitro minimum inhibitory concentration required against Morganella morganii GC 2213 strain
- Type: functional
Form entry: value (µg/mL) — number only.

INSERT INTO results (compound, experimental_result) VALUES
  ('C[C@H]1C(S[C@H]2CCO[C@H]2CN)=C(C(=O)O)N2C(=O)[C@H]([C@@H](C)O)C12 (stereo partly drawn)', 2);

Please look at the following compound next.
Data request: Given the compound C[C@H]1C(S[C@H]2COC[C@@H]2CN)=C(C(=O)O)N2C(=O)[C@H]([C@@H](C)O)C12 (stereo partly drawn) , what is its reported MIC?
Data returned: 4
